Tested on: K562;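 further: after 48 h exposure read by CellTiter-Glo luminescence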
assay-text: cell viability relative to vehicle control; higher = less cytotoxic
run-conditions: 10 µM; SRSF2 genotype: SRSF2 wt/wt
Where a name gives a salt, the structure may show the parent alone.
Consider the following molecules; for each one, report its cell viability.
Output spec: scalar in %, unitless text.

Exercise: Item `O=C(O)c1c[nH]c2cc(Cl)c(-c3ccc(C4(O)CCC4)cc3)cc12` has what recorded cell viability?
Solution: 95.2

Exercise: Same lookup for O=C(O)c1cccnc1Nc1cccc(C(F)(F)F)c1 [Niflumic acid] , please.
Solution: 94.6

Exercise: Same lookup for C=C1[C@H](OC(=O)/C=C(\C)CC)C[C@@H](C(C)C)[C@@H]2[C@@H]([C@@H](C)OC(C)=O)C(=O)C[C@@H]12 [Tussilagone] , please.
Solution: 89.5

Exercise: Same lookup for OCc1ccc(O)cc1 [4-Hydroxybenzyl alcohol] , please.
Solution: 111

Exercise: Same lookup for `Oc1ccc2ccccc2c1SSc1c(O)ccc2ccccc12` , please.
Solution: 83.9

Exercise: Same lookup for CC1=C(CC(=O)O)c2cc(F)ccc2/C1=C\c1ccc([S+](C)[O-])cc1 (stereo unspecified) [Sulindac (Clinoril)] , please.
Solution: 96.8

Exercise: Same lookup for CN1CCN(c2ccc3nc(-c4c(N)c5c(F)cccc5[nH]c4=O)[nH]c3c2)CC1 [Dovitinib Dilactic acid (TKI258 Dilactic aci] , please.
Solution: 8.9

Exercise: Same lookup for `CN(CC(=O)N(Cc1ccc(C2CCCCC2)cc1)c1ccc(C(=O)NO)cc1)S(=O)(=O)c1c(F)c(F)c(F)c(F)c1F` , please.
Solution: 0.42

Exercise: Same lookup for C[C@@H](Nc1nc(N[C@H](C)C(F)(F)F)nc(-c2cccc(Cl)n2)n1)C(F)(F)F [Vorasidenib (AG-881)] , please.
Solution: 84.7

Exercise: Same lookup for `Cc1nc(-c2cn3c(n2)-c2ccc(-c4cnn(C(C)(C)C(N)=O)c4)cc2OCC3)n(C(C)C)n1` , please.
Solution: 72.8

Exercise: Same lookup for NCCOc1cc(C(=O)Nc2cc(OCCN)c3ccccc3n2)nc(C(=O)Nc2cc(OCCN)c3ccccc3n2)c1 [Pyridostatin Trifluoroacetate Salt] , please.
Solution: 72.6

Exercise: Same lookup for CCCC1O[C@@H]2C[C@H]3[C@@H]4CCC5=CC(=O)C=C[C@]5(C)[C@H]4[C@@H](O)C[C@]3(C)[C@]2(C(=O)CO)O1 (stereo partly specified) [Budesonide] , please.
Solution: 83.7

Exercise: Same lookup for CCOC(=O)[C@H](CCc1ccccc1)N[C@H]1CCc2ccccc2N(CC(=O)O)C1=O [Benazepril hydrochloride] , please.
Solution: 108

Exercise: Same lookup for CN[C@H]1CN(c2ccc3c(=O)c(C(=O)O)cn(-c4nccs4)c3n2)C[C@@H]1OC [Voreloxin (SNS-595) hydrochloride] , please.
Solution: 79.8

Exercise: Same lookup for O=C(Cn1cnnn1)N[C@@H]1C(=O)N2C(C(=O)O)=C(CSc3nncs3)CS[C@H]12 [Ceftezole] , please.
Solution: 103

Exercise: Same lookup for C=CC(=O)N1CCC[C@@H](n2nc(-c3ccc(Oc4ccccc4)cc3)c(C(N)=O)c2N)C1 [Btk inhibitor 2] , please.
Solution: 84.8

Exercise: Same lookup for CCC(=O)O[C@@H]1CC(=O)O[C@H](C)C/C=C/C=C/[C@H](O)[C@H](C)C[C@H](CC=O)[C@H](O[C@@H]2O[C@H](C)[C@@H](O[C@H]3C[C@@](C)(O)[C@@H](OC(=O)CC)[C@H](C)O3)[C@H](N(C)C)[C@H]2O)[C@H]1OC [Midecamycin] , please.
Solution: 89.5

Exercise: Same lookup for O=C1Cc2cc(CCN3CCN(c4nsc5ccccc45)CC3)c(Cl)cc2N1 [Ziprasidone hydrochloride] , please.
Solution: 97

Exercise: Same lookup for COCC1=C(C(=O)OC(C)OC(=O)OC(C)C)N2C(=O)[C@@H](NC(=O)/C(=N\OC)c3csc(N)n3)[C@H]2SC1 (stereo partly specified) [Cefpodoxime proxetil] , please.
Solution: 92.6

Exercise: Same lookup for `O=C(O)CCN1C(=O)/C(=C/c2ccc(-c3ccc([N+](=O)[O-])cc3)o2)SC1=S` , please.
Solution: 111

Exercise: Same lookup for `NS(=O)(=O)c1ccc(NC(=S)N2CCN(CC=Cc3ccccc3)CC2)cc1` , please.
Solution: 93.5

Exercise: Same lookup for CC1(C)C2CCC1(C)C(O)C2 (stereo unspecified) [Borneol] , please.
Solution: 94.2

Exercise: Same lookup for CN(C)CC/C=C1/c2ccccc2Sc2ccc(Cl)cc21 [Chlorprothixene] , please.
Solution: 87.8

Exercise: Same lookup for CCCCCCCN(CC)CCCC(O)c1ccc(NS(C)(=O)=O)cc1 (stereo unspecified) [Ibutilide fumarate] , please.
Solution: 93.2

Exercise: Same lookup for O=C[C@H](O)[C@H]1OC(=O)[C@@H](O)[C@H]1O [D-Glucurone] , please.
Solution: 86.3

Exercise: Same lookup for CCCCNc1cc(C(=O)O)cc(S(N)(=O)=O)c1Oc1ccccc1 [Bumetanide] , please.
Solution: 102

Exercise: Same lookup for CCC(C)C1OC2(CCC1C)CC1CC(CC=C(C)C(OC3CC(OC)C(OC4CC(OC)C(O)C(C)O4)C(C)O3)C(C)C=CC=C3COC4C(O)C(C)=CC(C(=O)O1)C34O)O2 (stereo unspecified) [Ivermectin] , please.
Solution: 26.9

Exercise: Same lookup for `O=C(c1cncc(Br)c1)N1CCC(N2CCCC2)CC1` , please.
Solution: 98.7

Exercise: Same lookup for COc1ccc(C2CNC(=O)C2)cc1OC1CCCC1 (stereo unspecified) [Rolipram] , please.
Solution: 98.6

Exercise: Same lookup for `COc1cc2c(Oc3ccc(NC(=O)C4(C(=O)Nc5ccc(F)cc5)CC4)cc3F)ccnc2cc1OCCCN1CCOCC1` , please.
Solution: 0.55

Exercise: Same lookup for `O=C1N=C(N2CCOCC2)CN1c1ccc(Cl)cc1` , please.
Solution: 94.4
